# tested-target: Cathepsin D (Homo sapiens, UniProt P07339)
# Sequence (P07339 65-412, species assumed): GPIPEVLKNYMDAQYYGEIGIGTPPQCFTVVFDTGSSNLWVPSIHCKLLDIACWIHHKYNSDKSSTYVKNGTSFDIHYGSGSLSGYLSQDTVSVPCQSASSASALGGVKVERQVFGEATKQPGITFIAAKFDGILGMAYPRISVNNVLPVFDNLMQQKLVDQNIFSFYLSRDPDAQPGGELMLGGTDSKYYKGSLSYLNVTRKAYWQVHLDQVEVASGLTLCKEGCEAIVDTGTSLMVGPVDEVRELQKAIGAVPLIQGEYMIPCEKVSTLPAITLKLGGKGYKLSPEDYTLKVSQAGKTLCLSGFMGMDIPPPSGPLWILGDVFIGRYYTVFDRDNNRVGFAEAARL
pKi: −log10 of the molar value.
recorded-metric: pKi

Some solved entries appear below for comparison.
compound: COCCOCCOC(=O)C[C@H](NC(=O)OCc1nc(C)oc1C)C(=O)N[C@@H](CC(C)C)[C@@H](O)C[C@@H](C)C(=O)N[C@H](C(=O)NCC(C)C)C(C)C
observed-value: > 7.00

compound: Cc1csc(C[C@H](C)C(=O)N[C@@H](CNC(=O)O[C@H]2CCOC2)C(=O)N[C@@H](CC(C)C)[C@@H](O)C[C@@H](C)C(=O)N[C@H](C(=O)NCC(C)C)C(C)C)n1
observed-value: > 7.00

compound: COCCOC(=O)NC[C@H](NC(=O)[C@@H](C)Cc1nc(C)cs1)C(=O)N[C@@H](CC(C)C)[C@@H](O)C[C@@H](C)C(=O)N[C@H](C(=O)NCC(C)C)C(C)C
observed-value: > 7.00

Q) Fill blank: measured pKi of the compound CC(=O)NC[C@H](NC(=O)[C@@H](C)Cc1nc(C)cs1)C(=O)N[C@@H](CC(C)C)[C@@H](O)C[C@@H](C)C(=O)N[C@H](C(=O)NCC(C)C)C(C)C is ____.
A) 6.22 to 7.00

Q) # iterate: CC[C@H](C[C@H](O)[C@H](CC(C)C)NC(=O)[C@H](CNC(=O)OC(C)(C)C)NC(=O)[C@@H](C)Cc1nc(C)cs1)C(=O)N[C@H](C(=O)NCC(C)C)C(C)C
A) > 7.00

Q) # iterate: COCO[C@@H](Cn1nc(C)cc1C)C(=O)N[C@@H](CNC(=O)OC(C)(C)C)C(=O)N[C@@H](CC(C)C)[C@@H](O)C[C@@H](C)C(=O)N[C@H](C(=O)NCC(C)C)C(C)C
A) > 7.00

Q) # iterate: CC[C@@H](Cc1nc(C)cs1)C(=O)N[C@@H](CNC(=O)OC(C)C)C(=O)N[C@@H](CC(C)C)[C@@H](O)C[C@@H](C)C(=O)N[C@H](C(=O)NCC(C)C)C(C)C
A) > 7.00

Q) # iterate: Cc1csc(C[C@H](C)C(=O)N[C@@H](CNC(=O)OC(C)(C)C)C(=O)N[C@@H](Cc2ccccc2)[C@@H](O)C[C@@H](C)C(=O)N[C@H](C(=O)NCC(C)C)C(C)C)n1
A) > 7.00

Q) # iterate: Cc1cc(C)n(C[C@H](C)C(=O)N[C@@H](CNC(=O)O[C@H]2CCOC2)C(=O)N[C@@H](CC(C)C)[C@@H](O)C[C@@H](C)C(=O)N[C@H](C(=O)NCC(C)C)C(C)C)n1
A) > 7.00
